- Test system: HIV-1 RT mutant resistance test vector 41 + 62 + 69 + 75M + 210 + 215
- run-description: Phenotypic susceptibility assay, site directed RTV 41 + 62 + 69 + 75M + 210 + 215
- Assay type: cell-based
- run-conditions: RTV with 41 + 62 + 69 + 75M + 210 + 215; 1 replicate
Give measured Average fold reduction in susceptibility for each item. Keep answers brief.
Answers are plain numbers, in fold.

Some solved cases for reference:
INSERT INTO measurements (entry_smiles, assayed_target, reported_measurement) VALUES
  ('Nc1ccn([C@H]2CC[C@@H](CO)O2)c(=O)n1', 'HIV-1 RT mutant resistance test vector 41 + 62 + 69 + 75M + 210 + 215', 2.09),
  ('O=c1[nH]cnc2c1ncn2[C@H]1CC[C@@H](CO)O1', 'HIV-1 RT mutant resistance test vector 41 + 62 + 69 + 75M + 210 + 215', 3.10),
  ('Nc1nc(NC2CC2)c2ncn([C@H]3C=C[C@@H](CO)C3)c2n1', 'HIV-1 RT mutant resistance test vector 41 + 62 + 69 + 75M + 210 + 215', 15.53),
  ('Nc1ccn([C@@H]2CS[C@H](CO)O2)c(=O)n1', 'HIV-1 RT mutant resistance test vector 41 + 62 + 69 + 75M + 210 + 215', 18.41);

Proceeding to the next molecule to report its Average fold reduction in susceptibility.
Ask | // fetch Average fold reduction in susceptibility for `Cc1cn([C@H]2C=C[C@@H](CO)O2)c(=O)[nH]c1=O` ; system: HIV-1 RT mutant resistance test vector 41 + 62 + 69 + 75M + 210 + 215
Reply | 13.18
